Test system: MDA-MB-231
procedureDetails: NCI tumour cell line growth inhibition, 48 h
Activity calls are given as the source filed them. No stated cut-off is given here; in the data, active = GI50 up to about 1.1 µM and inactive = higher.
Thanks in advance; please answer with one of these: Y = active, N = inactive

These recorded examples may help you get a feel for the data.
- compound: "COC(=O)Nc1nc2cc(NC(=O)c3cccs3)ccc2[nH]1"
  answerLabel: "N"
- compound: "O=C(O)CCC(N/N=N/c1ccc(-c2nc3ccccc3[nH]2)cc1)C(=O)O (centres undefined)"
  answerLabel: "N"
- compound: "CCC(C)C(C(=O)N/N=C1/SCC(=O)N1C)C(=O)N/N=C1/SCC(=O)N1C (centres undefined)"
  answerLabel: "N"
- compound: "O=C(c1ccccc1)c1c(C(F)(F)F)[n+]([O-])c2cc(F)c(F)cc2[n+]1[O-]"
  answerLabel: "Y"
- compound: "O=C(O)CCC(NC(=O)c1ccc(CNc2nc3ccccc3nc2C(=O)O)cc1)C(=O)O (centres undefined)"
  answerLabel: "N"
- compound: "COc1ccc(C(c2ccc(OC)cc2)N2C(=O)CCC2C(=O)O)cc1 (centres undefined)"
  answerLabel: "N"
- compound: "O=C1N[C@@H]2c3c(Br)sc(Br)c3C(=O)[C@@H]2N1"
  answerLabel: "N"
- compound: "COC(=O)c1c2c(cc3c1CC1(Cc4ccc(C(C)=O)cc4C1)C3)CCC2 (centres undefined)"
  answerLabel: "N"
- compound: "Cc1cc2ncn(CC(=O)O)c2cc1C"
  answerLabel: "N"
- compound: "Cc1ccc(/C=c2\\c(=O)[nH]c3nc4ccccc4c(=O)n23)cc1"
  answerLabel: "N"

Query: What did the test return for C(=C/CCCN1O[C@@H](CCCCCCCCc2cccnc2)[C@H]2CCC[C@H]21)/CCCCCCCCCc1cccnc1 ?
Response: N

Query: Recorded call for CCCCN(CCCC)CC(O)c1cc(-c2ccc(C(F)(F)F)cc2)nc(-c2ccc(C(F)(F)F)cc2)c1 (centres undefined) ?
Response: N

Query: Give the logged outcome of this assay for the following compound: COc1cccc(C(C#N)NNC(=O)c2c(Cl)c(Cl)c(Cl)c(Cl)c2-c2nc3cc(C(=O)c4ccccc4)ccc3[nH]2)c1O (centres undefined)
Response: N

Query: Test call for this compound, please: Cc1ccc2[nH]/c(=N/S(=O)(=O)c3cc(C)c(Cl)cc3S)[nH]c2c1
Response: N

Query: For COC(=O)C1=C(OC(=O)/C(=C/c2ccccc2)c2ccc([N+](=O)[O-])cc2)C(C(=O)OC)[C@@]2(O)[C@@H](C(=O)OC)[C@H](C)C[C@@H]1[C@@H]2C(=O)OC (some centres undefined) , what call appears in the results of this test?
Response: N

Reference source: ChEMBL document CHEMBL1201862
